This section presents compounds with their documented cytotoxicity values.
Test: cytotoxicity in HPDE-C7 cells, cell-based, fluorescence, HTS (AID 430);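 also: cells exposed to compound for 48 hours before viability readout; 0% = vehicle and 100% = reference cytotoxic drug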
Settings: HPDE-C7 pancreatic duct cells viability, at 10 µM, hits give high values
The whole screen tested about 63,000 compounds, of which about 1,100 (1.7%) were called active. This excerpt belongs to a sample that is enriched for actives. Results with a measured potency or affinity are listed apart.
Give the number; % is assumed, so skip it.

Here's what some known entries look like.
I am curious: what cytotoxicity value has been reported for O=C(O)CCc1cc(I)c(Oc2ccc(O)c(I)c2)c(I)c1 ?
92.3

I am curious: what cytotoxicity value has been reported for O=C(O)c1cc(Cl)ccc1NC(=O)C1CCCO1 (stereo unspecified) ?
-8.9

I am curious: what cytotoxicity value has been reported for Cc1cnc(NC(=O)CSc2ncc(-c3ccccc3)n2Cc2ccco2)s1 ?
-1

I am curious: what cytotoxicity value has been reported for CCC(=O)Nc1cc(NC(=O)CSc2ncc(-c3ccc(F)cc3)n2Cc2ccco2)ccc1C ?
3.8

I am curious: what cytotoxicity value has been reported for COc1ccccc1-c1nnc2n1N=C(C)CS2 ?
-3.3

Kindly review the next compound as well.
I am curious: what cytotoxicity value has been reported for Fc1ccc(-c2cc3nc(-c4ccccc4)cc(N4CCOCC4)n3n2)cc1 ?
-7
